Catalogue of variants with associated self-cleavage
B1: HDV Ribozyme (parent)
chain: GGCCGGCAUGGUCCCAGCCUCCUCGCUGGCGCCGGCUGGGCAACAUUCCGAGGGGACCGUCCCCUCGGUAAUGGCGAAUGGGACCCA

- Variants of: B1
- protocol.summary: self-cleavage, relative activity (ratio to wild type); higher = more cleavage; co-transcriptional

{"mutation.spec": "G1U G25U", "self-cleavage": 0.248}
{"mutation.spec": "A51C G73U", "self-cleavage": 0.567}

Ask: Input C48G G81U , output reported self-cleavage.
Result: 0.424

Ask: Input A42C G74U , output reported self-cleavage.
Result: 0.0733

Ask: Input A8C A43C , output reported self-cleavage.
Result: 0.185

Ask: Input C41G C48G , output reported self-cleavage.
Result: 0.682
